Test: Single intravenous dose escalation of P5P, plasma pharmacokinetics (Examples Two and Three)
Format: in vivo, human
Details: both sexes, human; P5P 20 mg/kg single iv bolus, fasting; plasma; read-out: AUC-T
Measured parameter: AUC(0-t)

Sure, the documented AUC(0-t) for Cc1ncc(COP(=O)(O)O)c(C=O)c1O [P5P, Pyridoxal 5′-phosphate, reference compound] is 577 µg·h/mL

###

Assay: Single intravenous dose escalation of P5P, plasma pharmacokinetics (Examples Two and Three)
Type: in vivo, human
Conditions: both sexes, human, plasma, iv, 1 mg/kg, P5P 1 mg/kg single iv bolus, fasting
Experimental: A phase one clinical trial was conducted to compare the pharmacokinetics of intravenously administered P5P and orally administered P5P. The trial was a single dose escalation study. […] P5P, pyridoxal, and 4-pyridoxic acid were evaluated in both plasma and urine over a 24 hour interval following either intravenous or oral dosing. […] Concentrations of pyridoxal-5′-phosphate (P5P) were measured from the plasma samples collected over a 24-bour interval after dosing in each phase. […]
Measured parameter: Tmax (min)
# output: bare number, implied unit min

For Cc1ncc(COP(=O)(O)O)c(C=O)c1O [P5P, Pyridoxal 5′-phosphate, reference compound] the compound record lists Tmax as 8.4

###

Assay: clinical
Set-up: species or system human
Conditions: human, in vivo, iv, 10 mg/kg, AUC0-inf
Task for the reader: assign each of the following compounds its reported AUC(0-inf).
Express the result in ng·h/mL but write the number alone.

Reported AUC(0-inf) of Cc1ncc(CO)c(C(=O)O)c1O [PA, 4-pyridoxic acid] : 21200

For reference, reported AUC(0-inf) for Cc1ncc(COP(=O)(O)O)c(C=O)c1O [P5P, Pyridoxal 5′-phosphate, reference compound] stands at 283000

AUC(0-inf) in this record for Cc1ncc(CO)c(C=O)c1O [PAL, pyridoxal] : 22400

###

Assay: Single intravenous dose escalation of P5P, plasma pharmacokinetics (Examples Two and Three)
Type: in vivo, human
Conditions: both sexes, human; Group 4, P5P 20 mg/kg single iv; plasma PA; mean; read-out: AUC(0-t)
Measured parameter: AUC(0-t)

Entry `Cc1ncc(CO)c(C(=O)O)c1O` , AUC(0-t) reported as 51900 ng·h/mL

###

Experiment: Single intravenous dose escalation of P5P, plasma pharmacokinetics (Examples Two and Three)
Format: in vivo, human
Conditions: both sexes, human, plasma, iv, 10 mg/kg, Group 4, dose 10 mg/kg, single iv; plasma P5P; mean; read-out: AUC (O-t)
Protocol: A phase one clinical trial was conducted to compare the pharmacokinetics of intravenously administered P5P and orally administered P5P. The trial was a single dose escalation study. […] P5P, pyridoxal, and 4-pyridoxic acid were evaluated in both plasma and urine over a 24 hour interval following either intravenous or oral dosing. […] Concentrations of pyridoxal-5′-phosphate (P5P) were measured from the plasma samples collected over a 24-bour interval after dosing in each phase. […]
Measured parameter: AUC (µg·h/mL)
Quick reminder: number only, in µg·h/mL, skip the unit.

get_value(item= Cc1ncc(COP(=O)(O)O)c(C=O)c1O [P5P, Pyridoxal 5′-phosphate, reference compound] , readout=AUC) returns 577

###

Assay: Single intravenous dose escalation of P5P, plasma pharmacokinetics (Examples Two and Three)
Format: in vivo, human
Details: both sexes, human, plasma, iv, 1 mg/kg, P5P 1 mg/kg single iv bolus, fasting
Measured parameter: Cmax (ng/mL)
Could you give me the number in ng/mL? Just the number is fine.

The reported Cmax of the molecule Cc1ncc(COP(=O)(O)O)c(C=O)c1O [P5P, Pyridoxal 5′-phosphate, reference compound] was 20000
